Please go through the items and note down their cell viability.
system: WHIM2 (cells of a triple-negative basal-like breast cancer xenograft); assay: cell viability (% of vehicle); higher = less cytotoxic; conditions: 10 µM; 72 h;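 further: PDX cells carrying CMV promoter-driven luciferase, viability read as total photon flux per second by IVIS imaging following D-luciferin, vehicle control 0.1% DMSO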

Task: What cell viability appears in the records for this compound with WHIM2? COc1c(N2CCNC(C)C2)c(F)cc2c(=O)c(C(=O)O)cn(C3CC3)c12 (centres undefined)
Result: 59.6

Task: What cell viability appears in the records for this compound with WHIM2? `CC(C)(C)C(=O)OCOP(=O)(COCCn1cnc2c(N)ncnc21)OCOC(=O)C(C)(C)C`
Result: 50.6

Task: What cell viability appears in the records for this compound with WHIM2? CC(C(=O)O)c1ccc2c(c1)Cc1cccnc1O2 (centres undefined)
Result: 110

Task: What cell viability appears in the records for this compound with WHIM2? CC(=O)OCC(=O)C1CCC2C3CCC4=CC(=O)CCC4(C)C3CCC12C (centres undefined) [Deoxycorticosterone acetate]
Result: 140

Task: What cell viability appears in the records for this compound with WHIM2? CNC(=O)C(NC(=O)C(CC(C)C)C(O)C(=O)NO)C(C)(C)C (centres undefined)
Result: 105

Task: What cell viability appears in the records for this compound with WHIM2? CCn1cc(C(=O)O)c(=O)c2cc(F)c(N3CCNC(C)C3)c(F)c21.Cl (centres undefined) [Lomefloxacin HCl]
Result: 83.7

Task: What cell viability appears in the records for this compound with WHIM2? Clc1ccc(COC(Cn2ccnc2)c2ccc(Cl)cc2Cl)cc1.O=[N+]([O-])O (centres undefined) [Econazole nitrate]
Result: 45.3

Task: What cell viability appears in the records for this compound with WHIM2? O=C(NCC1CN(c2ccc(N3CCOCC3=O)cc2)C(=O)O1)c1ccc(Cl)s1 (centres undefined)
Result: 109

Task: What cell viability appears in the records for this compound with WHIM2? Cl.NC(N)=NC(N)=NCCc1ccccc1 [Phenformin HCl]
Result: 95.4

Task: What cell viability appears in the records for this compound with WHIM2? O=c1[nH]c(=O)n(C2CC(O)C(CO)O2)cc1C(F)(F)F (centres undefined)
Result: 87.8

Task: What cell viability appears in the records for this compound with WHIM2? COC(c1ccccc1)(c1ccccc1)C(Oc1nc(C)cc(C)n1)C(=O)O (centres undefined)
Result: 107

Task: What cell viability appears in the records for this compound with WHIM2? O=C(CS(=O)Cc1ccco1)NCC=CCOc1cc(CN2CCCCC2)ccn1 (centres undefined)
Result: 88.6

Task: What cell viability appears in the records for this compound with WHIM2? CC(NCCCc1cccc(C(F)(F)F)c1)c1cccc2ccccc12.Cl (centres undefined) [Cinacalcet HCl]
Result: 43.2

Task: What cell viability appears in the records for this compound with WHIM2? CCCCCCCCCC(=O)NC(Cc1c[nH]c2ccccc12)C(=O)NC(CC(N)=O)C(=O)NC(CC(=O)O)C(=O)NC1C(=O)NCC(=O)NC(CCCN)C(=O)NC(CC(=O)O)C(=O)NC(C)C(=O)NC(CC(=O)O)C(=O)NCC(=O)NC(CO)C(=O)NC(C(C)CC(=O)O)C(=O)NC(CC(=O)c2ccccc2N)C(=O)OC1C (centres undefined)
Result: 103

Task: What cell viability appears in the records for this compound with WHIM2? COC(=O)NC(C(=O)NC(Cc1ccccc1)C(O)CN(Cc1ccc(-c2ccccn2)cc1)NC(=O)C(NC(=O)OC)C(C)(C)C)C(C)(C)C.O=S(=O)(O)O (centres undefined)
Result: 90

Task: What cell viability appears in the records for this compound with WHIM2? COc1ccc(C2(C#N)CCC(C(=O)O)CC2)cc1OC1CCCC1 (centres undefined)
Result: 117

Task: What cell viability appears in the records for this compound with WHIM2? `Cc1nnc(NS(=O)(=O)c2ccc(N)cc2)s1`
Result: 91.3

Task: What cell viability appears in the records for this compound with WHIM2? CCc1c(Cl)c(O)c(Cl)c(O)c1C(=O)OC1C(C)OC(OCC2=CC=CCC(O)C(C)=CC(CC)C(OC3OC(C)(C)C(OC(=O)C(C)C)C(O)C3O)C(C)=CC(C)=CCC(C(C)O)OC2=O)C(OC)C1O (centres undefined)
Result: 40.7

Task: What cell viability appears in the records for this compound with WHIM2? CN(C)CCCN1c2ccccc2CCc2ccccc21.Cl [Imipramine (hydrochloride)]
Result: 82.5

Task: What cell viability appears in the records for this compound with WHIM2? CO/N=C(\C(=O)N[C@@H]1C(=O)N2C(C(=O)[O-])=C(COC(C)=O)CS[C@H]12)c1csc(N)n1.[Na+] [Cefotaxime (sodium salt)]
Result: 99.1

Task: What cell viability appears in the records for this compound with WHIM2? `NC(=O)c1ccc(I)c([N+](=O)[O-])c1`
Result: 181

Task: What cell viability appears in the records for this compound with WHIM2? CN(C)C(CCOc1cccc2ccccc12)c1ccccc1.Cl (centres undefined) [Dapoxetine HCl]
Result: 65.2

Task: What cell viability appears in the records for this compound with WHIM2? NCCCC(O)(P(=O)([O-])O)P(=O)(O)O.O.O.O.[Na+] [Alendronate]
Result: 104

Task: What cell viability appears in the records for this compound with WHIM2? CCC(=O)OC1(C(=O)CCl)C(C)CC2C3CC(F)C4=CC(=O)C=CC4(C)C3(F)C(O)CC21C (centres undefined) [Halobetasol Propionate]
Result: 113

Task: What cell viability appears in the records for this compound with WHIM2? Cn1c(=O)c2c(ncn2CC(O)CO)n(C)c1=O (centres undefined)
Result: 104

Task: What cell viability appears in the records for this compound with WHIM2? CC#CCn1c(N2CCCC(N)C2)nc2c1c(=O)n(Cc1nc(C)c3ccccc3n1)c(=O)n2C (centres undefined)
Result: 111

Task: What cell viability appears in the records for this compound with WHIM2? Cl.NC12CC3CC(CC(C3)C1)C2 [Amantadine HCl]
Result: 107

Task: What cell viability appears in the records for this compound with WHIM2? `COC(=O)Nc1nc2cc(C(=O)c3ccccc3)ccc2[nH]1`
Result: 92.6

Task: What cell viability appears in the records for this compound with WHIM2? CC(C)NCC(O)COc1ccc(CCOCC2CC2)cc1.Cl (centres undefined) [Betaxolol HCl]
Result: 101

----------
tested on: HCI09 (cells of a triple-negative luminal androgen receptor type breast cancer xenograft); experiment: cell viability (% of vehicle); higher = less cytotoxic; conditions: 10 µM; 72 h
Response field label: string, one of label 1 (cell viability strictly below 90) or label 0.

Task: I'd appreciate it if you could check whether O=C1C=CC=CC1=C1NC(=C2C=CC=CC2=O)N(c2ccc(C(=O)O)cc2)N1 [Deferasirox] has cell viability smaller than 90.
Result: label 1

Task: I'd appreciate it if you could check whether CC(C)Cc1ccc(C(C)C(=O)O)cc1.NCCCCC(N)C(=O)O (centres undefined) [Ibuprofen Lysine] has cell viability smaller than 90.
Result: label 0

Task: I'd appreciate it if you could check whether CS(=O)(=O)O.OC(CCN1CCCCC1)(c1ccccc1)c1ccccc1 [Pridinol Methanesulfonate] has cell viability smaller than 90.
Result: label 0

Task: I'd appreciate it if you could check whether N#CC(c1ccc(Cl)cc1)c1c(Cl)cc(-n2ncc(=O)[nH]c2=O)cc1Cl (centres undefined) [Diclazuril] has cell viability smaller than 90.
Result: label 1

Task: I'd appreciate it if you could check whether CC(C)c1nc(CN(C)C(=O)NC(C(=O)NC(Cc2ccccc2)CC(O)C(Cc2ccccc2)NC(=O)OCc2cncs2)C(C)C)cs1 (centres undefined) [Ritonavir] has cell viability smaller than 90.
Result: label 1

Task: I'd appreciate it if you could check whether Cc1ncc([N+](=O)[O-])n1CC(O)CCl (centres undefined) [Ornidazole] has cell viability smaller than 90.
Result: label 0

Task: I'd appreciate it if you could check whether Cc1nnc(SCC2=C(C(=O)[O-])N3C(=O)[C@@H](NC(=O)Cn4cnnn4)[C@H]3SC2)s1.[Na+] [Cefazolin (sodium salt)] has cell viability smaller than 90.
Result: label 0

Task: I'd appreciate it if you could check whether CCCC1O[C@@H]2C[C@H]3[C@@H]4CCC5=CC(=O)C=C[C@]5(C)[C@H]4[C@@H](O)C[C@]3(C)[C@]2(C(=O)CO)O1 (some centres undefined) [Budesonide] has cell viability smaller than 90.
Result: label 0

Task: I'd appreciate it if you could check whether Cc1ccc(Cl)c(Nc2ccccc2C(=O)[O-])c1Cl.[Na+] [Meclofenamate Sodium] has cell viability smaller than 90.
Result: label 0

Task: I'd appreciate it if you could check whether CC(C)(C)NCC(O)COc1cccc2c1CCC(O)=N2.Cl (centres undefined) [Carteolol HCl] has cell viability smaller than 90.
Result: label 0

Task: I'd appreciate it if you could check whether C[N+]1(C)CCC(OC(=O)C(O)(c2ccccc2)C2CCCC2)C1.[Br-] (centres undefined) [Glycopyrrolate] has cell viability smaller than 90.
Result: label 0

----------
Please go through the items and note down their cell viability.
system: HCI11 (cells of an ER-positive luminal breast cancer xenograft); assay: cell viability (% of vehicle); higher = less cytotoxic; settings: 10 µM; 72 h
Reply briefly: the number, and no unit.

Task: Could you tell me which cell viability is on file for Cl.NNc1nncc2ccccc12 [Hydralazine HCl] ?
Result: 79.8

Task: Could you tell me which cell viability is on file for `Clc1ccc2c(c1)C(N1CCNCC1)=Nc1ccccc1O2` ?
Result: 85

Task: Could you tell me which cell viability is on file for CCc1cnn2c(NCc3ccc[n+]([O-])c3)cc(N3CCCCC3CCO)nc12 (stereo not given) ?
Result: 72.6

Task: Could you tell me which cell viability is on file for CCC1OC(=O)CC(O)C(C)C(OC2OC(C)C(O)C(N(C)C)C2O)C(CCN2CC(C)CC(C)C2)CC(C)C(=O)C=CC(C)=CC1COC1OC(C)C(O)C(OC)C1OC (stereo not given) ?
Result: 80.9

Task: Could you tell me which cell viability is on file for CC1C=CC=CC=CC=CC=CC=CC=CC(OC2OC(C)C(O)C(N)C2O)CC2OC(O)(CC(O)CC(O)C(O)CCC(O)CC(O)CC(=O)OC(C)C(C)C1O)CC(O)C2C(=O)O (stereo not given) ?
Result: 109

Task: Could you tell me which cell viability is on file for NC(=O)NO [Hydroxyurea] ?
Result: 90

Task: Could you tell me which cell viability is on file for CN(C)CCC(c1ccc(Br)cc1)c1ccccn1.O=C(O)C=CC(=O)O (stereo not given) [Brompheniramine hydrogen maleate] ?
Result: 99.5

Task: Could you tell me which cell viability is on file for `COc1cc2ncnc(Nc3ccc(F)c(Cl)c3)c2cc1NC(=O)C=CCN1CCCCC1` ?
Result: 57

Task: Could you tell me which cell viability is on file for `O=NN(CCCl)C(=O)NCCCl` ?
Result: 83.9

Task: Could you tell me which cell viability is on file for CC(C)c1nc(CN(C)C(=O)NC(CCN2CCOCC2)C(=O)NC(CCC(Cc2ccccc2)NC(=O)OCc2cncs2)Cc2ccccc2)cs1 (stereo not given) [Cobicistat (GS-9350)] ?
Result: 52.3

Task: Could you tell me which cell viability is on file for C#CCC(Cc1cnc2nc(N)nc(N)c2n1)c1ccc(C(=O)NC(CCC(=O)O)C(=O)O)cc1 (stereo not given) [Pralatrexate] ?
Result: 115

Task: Could you tell me which cell viability is on file for COCC1=C(C(=O)OC(C)OC(=O)OC(C)C)N2C(=O)[C@@H](NC(=O)/C(=N\OC)c3csc(N)n3)[C@H]2SC1 (stereo not given in full) ?
Result: 103

Task: Could you tell me which cell viability is on file for NC(=O)N1c2ccccc2CC(=O)c2ccccc21 [Oxcarbazepine] ?
Result: 98.9

Task: Could you tell me which cell viability is on file for CC(C)(O)c1ccccc1CCC(SCC1(CC(=O)[O-])CC1)c1cccc(C=Cc2ccc3ccc(Cl)cc3n2)c1.[Na+] (stereo not given) [Montelukast Sodium] ?
Result: 103

Task: Could you tell me which cell viability is on file for `O=C(O)C=Cc1ccccc1` ?
Result: 94.3
